Biological target: DrHCN4 (Danio rerio)
Sequence (A0A8N7UQR8 1-1140): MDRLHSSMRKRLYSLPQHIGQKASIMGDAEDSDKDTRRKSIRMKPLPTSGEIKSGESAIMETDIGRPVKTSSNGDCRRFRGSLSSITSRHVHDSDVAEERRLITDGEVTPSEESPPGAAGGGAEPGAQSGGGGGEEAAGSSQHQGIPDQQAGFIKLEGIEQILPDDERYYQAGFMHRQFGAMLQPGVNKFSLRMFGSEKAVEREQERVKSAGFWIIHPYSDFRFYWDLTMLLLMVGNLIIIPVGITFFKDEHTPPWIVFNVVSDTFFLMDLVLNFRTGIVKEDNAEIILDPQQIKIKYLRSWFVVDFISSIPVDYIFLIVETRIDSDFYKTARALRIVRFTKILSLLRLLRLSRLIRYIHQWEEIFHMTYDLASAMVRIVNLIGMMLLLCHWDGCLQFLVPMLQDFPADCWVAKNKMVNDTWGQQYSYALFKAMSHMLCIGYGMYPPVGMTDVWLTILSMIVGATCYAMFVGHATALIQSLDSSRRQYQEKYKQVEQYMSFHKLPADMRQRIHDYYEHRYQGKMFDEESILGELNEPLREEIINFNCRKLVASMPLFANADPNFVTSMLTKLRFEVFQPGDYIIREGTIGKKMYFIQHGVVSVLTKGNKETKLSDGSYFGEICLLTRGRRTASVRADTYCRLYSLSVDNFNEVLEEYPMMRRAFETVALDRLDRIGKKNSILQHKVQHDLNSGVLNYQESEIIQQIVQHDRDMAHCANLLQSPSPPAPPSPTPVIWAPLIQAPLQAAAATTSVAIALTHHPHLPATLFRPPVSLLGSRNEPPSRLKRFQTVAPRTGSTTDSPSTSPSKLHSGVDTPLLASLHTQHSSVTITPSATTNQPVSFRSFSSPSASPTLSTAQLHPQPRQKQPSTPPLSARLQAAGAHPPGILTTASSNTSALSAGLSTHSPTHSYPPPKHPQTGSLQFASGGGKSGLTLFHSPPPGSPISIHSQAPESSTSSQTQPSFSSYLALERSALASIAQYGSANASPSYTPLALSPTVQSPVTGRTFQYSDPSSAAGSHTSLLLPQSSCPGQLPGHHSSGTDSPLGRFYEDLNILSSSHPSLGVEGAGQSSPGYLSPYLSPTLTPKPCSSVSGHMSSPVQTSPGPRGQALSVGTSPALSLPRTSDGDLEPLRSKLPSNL
Test: Inhibition of HCN4 currents in Xenopus oocytes, two-electrode voltage clamp
Format: cell-based, zebrafish (Danio rerio)
Conditions: DrHCN4 in Xenopus oocytes; holding −30 mV, hyperpolarized to −120 mV for 2 s; room temperature; read-out: IC50
value-type: IC50 (µM)
State just the number; it will be interpreted in µM.

What value of measured IC50 is listed for "CCN(c1ccccc1)c1cc(=NC)n(C)c(C)n1.Cl" ?
699

May I ask what IC50 has been recorded for [Cl-].[Cs+] [Cesium ion, Cesium chloride] ?
44.3
